- System: Pseudomonas aeruginosa
- protocol text: Antibacterial activity against Pseudomonas aeruginosa NCTC 10662 at 100 ug/ml after 18 to 24 hrs by cup plate method
- Type: functional
- condition details: read-out: DIZ
assay endpoint: zone of inhibition at 100 µg/mL (mm)
All answers are understood in mm, so give the number only.

Consider the reported zone of inhibition at 100 µg/mL for these molecules:
Cc1nn(C(=O)c2ccc(Cl)cc2Cl)c2c1nnc1cc(Cl)c(F)cc12    14.1
Cc1nn(C(=O)Cc2cccc3ccccc23)c2c1nnc1cc(Cl)c(F)cc12    5.11
Cc1ccc(C(=O)n2nc(C)c3nnc4cc(Cl)c(F)cc4c32)cc1    8.36

Input `Cc1nn(C(=O)c2ccc([N+](=O)[O-])cc2)c2c1nnc1cc(Cl)c(F)cc12` , output reported zone of inhibition at 100 µg/mL.
14.2

Input `Cc1nn(C(=O)COc2ccccc2)c2c1nnc1cc(Cl)c(F)cc12` , output reported zone of inhibition at 100 µg/mL.
10.3

Input `Cc1nn(C(=O)c2ccccc2)c2c1nnc1cc(Cl)c(F)cc12` , output reported zone of inhibition at 100 µg/mL.
11.1

Input `Cc1nn(C(=O)Cc2ccccc2)c2c1nnc1cc(Cl)c(F)cc12` , output reported zone of inhibition at 100 µg/mL.
12.2

Input `O=C(O)c1cn(C2CC2)c2cc(N3CCNCC3)c(F)cc2c1=O` , output reported zone of inhibition at 100 µg/mL.
22.6
